Collected pIC50 values appear next to each entry.
studySystem: UniProtKB Q12809
Sequence (Q12809 whole entry): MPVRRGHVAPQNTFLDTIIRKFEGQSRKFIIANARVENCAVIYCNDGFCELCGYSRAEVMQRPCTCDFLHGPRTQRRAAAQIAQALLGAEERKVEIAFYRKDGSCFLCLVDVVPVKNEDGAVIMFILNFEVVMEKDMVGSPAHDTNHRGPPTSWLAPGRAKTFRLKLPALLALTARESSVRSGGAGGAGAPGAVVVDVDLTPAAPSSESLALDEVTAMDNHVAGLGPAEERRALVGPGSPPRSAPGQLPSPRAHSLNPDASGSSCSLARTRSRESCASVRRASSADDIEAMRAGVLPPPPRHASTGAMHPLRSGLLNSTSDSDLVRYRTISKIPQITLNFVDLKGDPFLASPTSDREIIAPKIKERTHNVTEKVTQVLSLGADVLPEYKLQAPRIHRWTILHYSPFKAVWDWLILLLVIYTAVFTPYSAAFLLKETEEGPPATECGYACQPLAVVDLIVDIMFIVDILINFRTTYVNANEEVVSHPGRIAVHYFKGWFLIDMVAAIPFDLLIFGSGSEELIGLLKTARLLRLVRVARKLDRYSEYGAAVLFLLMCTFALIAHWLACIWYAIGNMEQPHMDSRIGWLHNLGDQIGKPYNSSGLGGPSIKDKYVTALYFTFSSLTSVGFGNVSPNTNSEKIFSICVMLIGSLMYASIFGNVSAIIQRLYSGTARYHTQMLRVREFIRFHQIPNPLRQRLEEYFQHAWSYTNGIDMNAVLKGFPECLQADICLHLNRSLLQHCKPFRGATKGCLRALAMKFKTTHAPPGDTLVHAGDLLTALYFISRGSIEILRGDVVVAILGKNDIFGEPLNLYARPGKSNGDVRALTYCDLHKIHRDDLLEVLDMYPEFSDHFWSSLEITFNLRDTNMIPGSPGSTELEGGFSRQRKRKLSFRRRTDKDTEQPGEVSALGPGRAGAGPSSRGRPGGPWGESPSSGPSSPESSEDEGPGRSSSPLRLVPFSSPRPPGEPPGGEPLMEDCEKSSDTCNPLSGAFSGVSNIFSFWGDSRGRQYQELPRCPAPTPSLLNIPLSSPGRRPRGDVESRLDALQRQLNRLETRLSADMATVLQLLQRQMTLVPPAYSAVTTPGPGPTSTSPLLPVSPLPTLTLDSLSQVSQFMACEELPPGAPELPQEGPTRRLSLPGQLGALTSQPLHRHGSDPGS
protocol: Inhibition of human ERG by patch clamp assay
Note on units: pIC50 is unitless, being -log10 of a concentration expressed in mol/L.

Past entries and their recorded results:
Data request: Return pIC50 measured with UniProtKB Q12809 given this compound: `CC(C)Cc1cc(C(=O)NCC2(C#N)CCN(CC3=Cc4ccccc4OC3(C)C)CC2)nn1-c1ccccc1`
Data returned: 5.33

Data request: Next record, please: `N#CC1(CNC(=O)c2cc(Cl)cc(Cl)c2)CCN(CCc2ccccc2)CC1`
Data returned: 6.44

Continue with the compound presented below.
Data request: Form field: pIC50 recorded for `CC(C)Cc1cc(C(=O)NCC2(C#N)CCN(Cc3ccccc3C(F)(F)F)CC2)nn1-c1ccccc1` with UniProtKB Q12809 (enter value)
Data returned: 5.32
